Reference source: BigSolDB 2.1

# particulars: in chloroform, 293.15 K
propertyName: solubility (mole fraction)
The response must contain the number and no unit.

## Task Please look up its solubility (mole fraction): CCCCCCC1(CCCCCC)c2cc(Br)ccc2-c2ccc(Br)cc21
## Result 0.041

---

# particulars: in 1,4-dioxane, 303.15 K
propertyName: solubility (mole fraction)

## Task Requested field: solubility (mole fraction). Item: CCCCCCC1(CCCCCC)c2cc(Br)ccc2-c2ccc(Br)cc21
## Result 0.0801

---

# particulars: in dichloromethane, 313.15 K
propertyName: solubility (mole fraction)
Enter the number alone.

## Task What value of measured solubility (mole fraction) is listed for CCCCCCC1(CCCCCC)c2cc(Br)ccc2-c2ccc(Br)cc21 ?
## Result 0.0987
